Tested on: ChaGo-K-1
Method summary: relative viability (nuclei count vs DMSO), 5 days (fraction); higher = more cells survive
Measurement conditions: first compound 8 µM

# Compound, relative viability
records = [
    ("O=c1[nH]c2ccccc2n1C1CCN(CCCC(c2ccc(F)cc2)c2ccc(F)cc2)CC1 [Pimozide] + Cc1cc(Nc2cc(N3CCN(C)CC3)nc(Sc3ccc(NC(=O)C4CC4)cc3)n2)n[nH]1 [Tozasertib] (partner 0.1 µM)", 0.211),
    ("O=c1[nH]c2ccccc2n1C1CCN(CCCC(c2ccc(F)cc2)c2ccc(F)cc2)CC1 [Pimozide] + COc1cccc2cc(-c3nc([C@H]4CC[C@H](C(=O)O)CC4)n4ncnc(N)c34)[nH]c12 [OSI-027] (partner 0.5 µM)", 0.485),
    ("O=c1[nH]c2ccccc2n1C1CCN(CCCC(c2ccc(F)cc2)c2ccc(F)cc2)CC1 [Pimozide] + O=C(c1cc(Cc2n[nH]c(=O)c3ccccc23)ccc1F)N1CCN(C(=O)C2CC2)CC1 [Olaparib] (partner 8 µM)", 0.413),
    ("O=c1[nH]c2ccccc2n1C1CCN(CCCC(c2ccc(F)cc2)c2ccc(F)cc2)CC1 [Pimozide] + CC(C)C[C@H](NC(=O)[C@H](Cc1ccccc1)NC(=O)c1cnccn1)B(O)O [Bortezomib] (partner 0.002 µM)", 0.872),
    ("O=c1[nH]c2ccccc2n1C1CCN(CCCC(c2ccc(F)cc2)c2ccc(F)cc2)CC1 [Pimozide] + CC(=O)Nc1cccc(-n2c(=O)n(C3CC3)c(=O)c3c(Nc4ccc(I)cc4F)n(C)c(=O)c(C)c32)c1 [Trametinib] (partner 0.02 µM)", 0.874),
    ("O=c1[nH]c2ccccc2n1C1CCN(CCCC(c2ccc(F)cc2)c2ccc(F)cc2)CC1 [Pimozide] + Cc1nc(Nc2ncc(C(=O)Nc3c(C)cccc3Cl)s2)cc(N2CCN(CCO)CC2)n1 [Dasatinib] (partner 0.075 µM)", 0.595),
]

----------
Tested on: NCI-H1734
Method summary: relative viability (nuclei count vs DMSO), 5 days (fraction); higher = more cells survive
Measurement conditions: first compound 0.8 µM
Quantity kind: relative viability

# Molecule, Target or test system, Assay value
records = [
    ("Cc1cnc(-c2cnc(NCCNc3ccc(C#N)cn3)nc2-c2ccc(Cl)cc2Cl)[nH]1 + NC(=O)Nc1cc(-c2cccc(F)c2)sc1C(=O)N[C@H]1CCCNC1 [AZD7762] (partner 0.2 µM)", "NCI-H1734", 0.543),
    ("Cc1cnc(-c2cnc(NCCNc3ccc(C#N)cn3)nc2-c2ccc(Cl)cc2Cl)[nH]1 + Cc1nc(Nc2ncc(C(=O)Nc3c(C)cccc3Cl)s2)cc(N2CCN(CCO)CC2)n1 [Dasatinib] (partner 0.075 µM)", "NCI-H1734", 0.467),
    ("Cc1cnc(-c2cnc(NCCNc3ccc(C#N)cn3)nc2-c2ccc(Cl)cc2Cl)[nH]1 + Cc1nc(NC(=O)N2CCC[C@H]2C(N)=O)sc1-c1ccnc(C(C)(C)C(F)(F)F)c1 [Alpelisib] (partner 2 µM)", "NCI-H1734", 0.656),
]

----------
System: SK-MES-1
Method summary: relative viability (nuclei count vs DMSO), 5 days (fraction); higher = more cells survive
Measurement conditions: first compound 0.006325 µM
Quantity kind: relative viability

# Molecule, Quantity kind, Assay value
records = [
    ("CC(=O)O[C@@]12CO[C@@H]1C[C@H](O)[C@@]1(C)C(=O)[C@H](O)C3=C(C)[C@@H](OC(=O)[C@H](O)[C@@H](NC(=O)OC(C)(C)C)c4ccccc4)C[C@@](O)([C@@H](OC(=O)c4ccccc4)[C@H]21)C3(C)C [Docetaxel] + Nc1nc2[nH]cc(CCc3ccc(C(=O)N[C@@H](CCC(=O)O)C(=O)O)cc3)c2c(=O)[nH]1 [Pemetrexed] (partner 0.2 µM)", "relative viability", 0.341),
    ("CC(=O)O[C@@]12CO[C@@H]1C[C@H](O)[C@@]1(C)C(=O)[C@H](O)C3=C(C)[C@@H](OC(=O)[C@H](O)[C@@H](NC(=O)OC(C)(C)C)c4ccccc4)C[C@@](O)([C@@H](OC(=O)c4ccccc4)[C@H]21)C3(C)C [Docetaxel] + O=C(CCCCCCC(=O)Nc1ccccc1)NO [Vorinostat] (partner 1 µM)", "relative viability", 0.267),
    ("CC(=O)O[C@@]12CO[C@@H]1C[C@H](O)[C@@]1(C)C(=O)[C@H](O)C3=C(C)[C@@H](OC(=O)[C@H](O)[C@@H](NC(=O)OC(C)(C)C)c4ccccc4)C[C@@](O)([C@@H](OC(=O)c4ccccc4)[C@H]21)C3(C)C [Docetaxel] + CC(=O)Nc1cccc(-n2c(=O)n(C3CC3)c(=O)c3c(Nc4ccc(I)cc4F)n(C)c(=O)c(C)c32)c1 [Trametinib] (partner 0.02 µM)", "relative viability", 0.313),
]

----------
System: NCI-H2087
Method summary: relative viability (nuclei count vs DMSO), 5 days (fraction); higher = more cells survive
Measurement conditions: first compound 0.5 µM
Examples of compounds with documented relative viability follow.

# Compound, relative viability
data = [
    ("Nc1ccn([C@@H]2O[C@H](CO)[C@@H](O)[C@@H]2O)c(=O)n1 [Cytarabine] + CS(=O)(=O)N1CCN(Cc2cc3nc(-c4cccc5[nH]ncc45)nc(N4CCOCC4)c3s2)CC1 [Pictilisib] (partner 1 µM)", 0.355),
    ("Nc1ccn([C@@H]2O[C@H](CO)[C@@H](O)[C@@H]2O)c(=O)n1 [Cytarabine] + CC(=O)Nc1cccc(-n2c(=O)n(C3CC3)c(=O)c3c(Nc4ccc(I)cc4F)n(C)c(=O)c(C)c32)c1 [Trametinib] (partner 0.02 µM)", 0.126),
    ("COc1cc2nccc(Oc3ccc(NC(=O)Nc4cc(C)on4)c(Cl)c3)c2cc1OC [Tivozanib] + CC(=O)c1c(C)c2cnc(Nc3ccc(N4CCNCC4)cn3)nc2n(C2CCCC2)c1=O [Palbociclib] (partner 0.5 µM)", 0.231),
    ("Nc1ccn([C@@H]2O[C@H](CO)[C@@H](O)[C@@H]2O)c(=O)n1 [Cytarabine] + Cc1cc(Nc2cc(N3CCN(C)CC3)nc(Sc3ccc(NC(=O)C4CC4)cc3)n2)n[nH]1 [Tozasertib] (partner 0.1 µM)", 0.174),
    ("COc1cc2nccc(Oc3ccc(NC(=O)Nc4cc(C)on4)c(Cl)c3)c2cc1OC [Tivozanib] + Nc1nc2[nH]cc(CCc3ccc(C(=O)N[C@@H](CCC(=O)O)C(=O)O)cc3)c2c(=O)[nH]1 [Pemetrexed] (partner 0.2 µM)", 0.653),
    ("Nc1ccn([C@@H]2O[C@H](CO)[C@@H](O)[C@@H]2O)c(=O)n1 [Cytarabine] + Nc1nc2[nH]cc(CCc3ccc(C(=O)N[C@@H](CCC(=O)O)C(=O)O)cc3)c2c(=O)[nH]1 [Pemetrexed] (partner 0.2 µM)", 0.283),
    ("COc1cc2nccc(Oc3ccc(NC(=O)Nc4cc(C)on4)c(Cl)c3)c2cc1OC [Tivozanib] + Cc1nc(NC(=O)N2CCC[C@H]2C(N)=O)sc1-c1ccnc(C(C)(C)C(F)(F)F)c1 [Alpelisib] (partner 2 µM)", 1.04),
    ("Nc1ccn([C@@H]2O[C@H](CO)[C@@H](O)[C@@H]2O)c(=O)n1 [Cytarabine] + O=C(CCCCCCC(=O)Nc1ccccc1)NO [Vorinostat] (partner 1 µM)", 0.308),
]

----------
Test system: LC-2-ad
Method summary: relative viability (nuclei count vs DMSO), 5 days (fraction); higher = more cells survive
Measurement conditions: first compound 0.8 µM

# Compound, Target or test system, relative viability
records = [
    ("O=c1[nH]c2ccccc2n1C1CCN(CCCC(c2ccc(F)cc2)c2ccc(F)cc2)CC1 [Pimozide] + N=C(N)NC(=N)NCCc1ccccc1 [Phenformin] (partner 250 µM)", "LC-2-ad", 0.571),
    ("O=c1[nH]c2ccccc2n1C1CCN(CCCC(c2ccc(F)cc2)c2ccc(F)cc2)CC1 [Pimozide] + Cc1nc(Nc2ncc(C(=O)Nc3c(C)cccc3Cl)s2)cc(N2CCN(CCO)CC2)n1 [Dasatinib] (partner 0.075 µM)", "LC-2-ad", 0.447),
    ("Cc1cnc(-c2cnc(NCCNc3ccc(C#N)cn3)nc2-c2ccc(Cl)cc2Cl)[nH]1 + C[C@]1(O)C[C@@H](c2nc(-c3ccc4ccc(-c5ccccc5)nc4c3)c3c(N)nccn32)C1 [Linsitinib] (partner 1 µM)", "LC-2-ad", 0.858),
    ("Cc1cnc(-c2cnc(NCCNc3ccc(C#N)cn3)nc2-c2ccc(Cl)cc2Cl)[nH]1 + NC(=O)Nc1cc(-c2cccc(F)c2)sc1C(=O)N[C@H]1CCCNC1 [AZD7762] (partner 0.2 µM)", "LC-2-ad", 0.687),
    ("O=c1[nH]c2ccccc2n1C1CCN(CCCC(c2ccc(F)cc2)c2ccc(F)cc2)CC1 [Pimozide] + Cc1cc(Nc2cc(N3CCN(C)CC3)nc(Sc3ccc(NC(=O)C4CC4)cc3)n2)n[nH]1 [Tozasertib] (partner 0.1 µM)", "LC-2-ad", 0.416),
    ("Cc1cnc(-c2cnc(NCCNc3ccc(C#N)cn3)nc2-c2ccc(Cl)cc2Cl)[nH]1 + Nc1nc2[nH]cc(CCc3ccc(C(=O)N[C@@H](CCC(=O)O)C(=O)O)cc3)c2c(=O)[nH]1 [Pemetrexed] (partner 0.2 µM)", "LC-2-ad", 0.252),
    ("Cc1cnc(-c2cnc(NCCNc3ccc(C#N)cn3)nc2-c2ccc(Cl)cc2Cl)[nH]1 + O=C(CCCCCCC(=O)Nc1ccccc1)NO [Vorinostat] (partner 1 µM)", "LC-2-ad", 0.705),
    ("O=c1[nH]c2ccccc2n1C1CCN(CCCC(c2ccc(F)cc2)c2ccc(F)cc2)CC1 [Pimozide] + CC(=O)c1c(C)c2cnc(Nc3ccc(N4CCNCC4)cn3)nc2n(C2CCCC2)c1=O [Palbociclib] (partner 0.5 µM)", "LC-2-ad", 0.475),
    ("Cc1cnc(-c2cnc(NCCNc3ccc(C#N)cn3)nc2-c2ccc(Cl)cc2Cl)[nH]1 + CC(=O)Nc1cccc(-n2c(=O)n(C3CC3)c(=O)c3c(Nc4ccc(I)cc4F)n(C)c(=O)c(C)c32)c1 [Trametinib] (partner 0.02 µM)", "LC-2-ad", 0.953),
]

Source of measurements: the supplement of paper PMC10307832
